Molecular target: cIAP2-BIR2 (Homo sapiens (Human), UniProt Q13489)
Sequence (Q13489 158-242): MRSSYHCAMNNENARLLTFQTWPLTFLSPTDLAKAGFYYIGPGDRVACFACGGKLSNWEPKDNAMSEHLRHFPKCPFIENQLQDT
Experiment: BIR binding assay (FRET competition), cIAP2 BIR2
Method: The BIR domain binding assays are FRET based competition assays that utilize His-tagged versions of each of the BIR2 and BIR3 domains from cIAP1, cIAP2, and XIAP (each domain assayed separately) each at a custom optimal concentration and a probe, 200 nM SMAC/DIABLO peptide […] labelled with AlexaFluor647 (part #crb 1110326h, Discovery Peptides). The assay is conducted in 50 mM HEPES, […], 1 mM CHAPS, 5% Glycerol, 1 mM DTT, in dI water with a final pH of 7.4 and final volume of 20 uL. […]
pIC50: −log10 of the molar value.
MEASUREMENT KIND: pIC50

Input line: Value lookup for pIC50; key = C[C@@H]1CN(CC(=O)N2CC(C)(C)c3[nH]c(=O)c(Cc4ccc(F)cc4)cc32)[C@@H](CN2CCN(C(=O)Cc3ccccc3CC(=O)N3CCN(C[C@H]4CN[C@H](C)CN4CC(=O)N4CC(C)(C)c5[nH]c(=O)c(Cc6ccc(F)cc6)cc54)[C@H](C)C3)C[C@H]2C)CN1
Output line: 6.00 to 7.65

Input line: Then what about the molecule C[C@@H]1CN(CC(=O)N2CC(C)(C)c3[nH]c(=O)c(Cc4ccc(F)cc4)cc32)[C@@H](CN2CCO[C@H](C(=O)NCCCC(=O)N3CCN(C[C@H]4CN[C@H](C)CN4CC(=O)N4CC(C)(C)c5[nH]c(=O)c(Cc6ccc(F)cc6)cc54)[C@H](C)C3)C2)CN1 ?
Output line: 5.50 to 6.00

Input line: Then what about the molecule C[C@@H]1CN(CC(=O)N2CC(C)(C)c3[nH]c(=O)c(Cc4ccc(F)cc4)cc32)[C@@H](CN2CCO[C@H](COc3ccc(Cl)c(OC[C@@H]4CN(C[C@H]5CN[C@H](C)CN5CC(=O)N5CC(C)(C)c6[nH]c(=O)c(Cc7ccc(F)cc7)cc65)CCO4)c3)C2)CN1 ?
Output line: 5.50 to 6.00

Input line: Then what about the molecule C[C@@H]1CN(CC(=O)N2CC(C)(C)c3[nH]c(=O)c(Cc4ccc(F)cc4)cc32)[C@@H](CN2CCO[C@H](COc3ccc(C(=O)C(=O)c4ccc(OC[C@@H]5CN(C[C@H]6CN[C@H](C)CN6CC(=O)N6CC(C)(C)c7[nH]c(=O)c(Cc8ccc(F)cc8)cc76)CCO5)cc4)cc3)C2)CN1 ?
Output line: 5.00 to 5.50

###

Molecular target: cIAP2-BIR3 (Homo sapiens (Human), UniProt Q13489)
Sequence (Q13489 238-349): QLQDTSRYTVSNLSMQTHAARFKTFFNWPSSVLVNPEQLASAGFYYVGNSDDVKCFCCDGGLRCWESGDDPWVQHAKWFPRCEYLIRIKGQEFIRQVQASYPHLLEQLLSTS
Assay: BIR binding assay (FRET competition), cIAP2 BIR3
MEASUREMENT KIND: IC50

Input line: Value lookup for IC50; key = C[C@@H]1CN(CC(=O)N2CC(C)(C)c3[nH]c(=O)c(Cc4cc(F)c(F)cc4F)cc32)[C@@H](CN2CCO[C@H](C(=O)NCc3ccc(CNC(=O)[C@@H]4CN(C[C@H]5CN[C@H](C)CN5CC(=O)N5CC(C)(C)c6[nH]c(=O)c(Cc7cc(F)c(F)cc7F)cc65)CCO4)cc3)C2)CN1
Output line: 7.94 to 15.8 nM

Input line: Then what about the molecule C[C@@H]1CN(CC(=O)N2CC(C)(C)c3[nH]c(=O)c(Cc4ccc(F)cc4)cc32)[C@@H](CN2CCO[C@H](C(=O)Nc3cccc(NC(=O)[C@@H]4CN(C[C@H]5CN[C@H](C)CN5CC(=O)N5CC(C)(C)c6[nH]c(=O)c(Cc7ccc(F)cc7)cc65)CCO4)c3)C2)CN1 ?
Output line: 7.94 to 15.8 nM
